B1: tRNA (parent)
chain: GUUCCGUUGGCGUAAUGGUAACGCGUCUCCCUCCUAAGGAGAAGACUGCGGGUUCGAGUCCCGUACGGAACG

# Variants of: B1
# assay-summary: yeast fitness relative to wild type (ratio to wild type); higher = fitter; tRNA-Arg(CCU), competitive growth, 37 C, YPD
This sample holds only a part of the variants without activity.
measure-name: yeast fitness

Item under review: GUUCCAUUGGCGUAAUGGUAGCGCGUCUCCCUCCUAAGGAGAAGACUGCGGGUUUGAGUCCCGUAUGGAACG . Reported yeast fitness? ≤ 0.5

Endpoint output: yeast fitness of GUUCCGUUGGCGUGAUGGUAACGCGGCUCCCUCCUAUGGAGAAGUCUGCGAGUUCGAGUCCCGUCCGGAACG . Value? ≤ 0.5

Name the reported yeast fitness value associated with the variant GUUCCGUUGGCGUAAUGGUAAUGCGUCUCCGUCCUAAGGAGAAGACUGCGGGUUCGAGUCCCGAAAGGAACG ≤ 0.5

Param item = GUUCCGUUGGCGUAAUGGUAACGCGUCUCGCUCCUAAGGAGAAGACUGCGCGUUCGAGUCGCGUACGGAACG ; retrieve measured yeast fitness. ≤ 0.5

Quick one: yeast fitness of GUUCCGUUGGCGUAAUGGUAACGCGUCUCCCUCCUAAGGAGAAGGCUGCGGGUUUGAGUCCCGUACAGGACG ? ≤ 0.5

Please report the recorded yeast fitness for GUUCCGUUGGCGUAAUGGUAGCGCGUCUCCCUCCUAAGGGGAAGACUGGGGGUUCGAGGCCCGUACCGAACG . ≤ 0.5

Please give the measured yeast fitness for this variant: GUUCCAUUGGCGUAAUGGUAACGCGUAUCCCUCCUGAGGAGAAGACUGCGGGUUCGAGUCCCGUACGGAUCG ≤ 0.5

Would you kindly share the measured yeast fitness for GUUCCGUCAGCGUAAUGGUCACGCGUCUCCCUCCUAAGGAGAAGACUGCGGGUUCGAGUCCCGUACGGAUCG ? ≤ 0.5

Any idea what its yeast fitness is? The variant is GUUCCGUUAGCGUGAUGGUAACGCGUCUGCCUCCUAAGGAGAAGACUGCGGGUUCGAGUCCCGUACGGAACG ≤ 0.5

Give its yeast fitness value. Item: GUUCCGUUGGCGUAAUGGUAACGCGUGUCCCUCCUAAGGAGAAGCCUGCGGGUUCGACUCCCGUACGGAACG 0.644

For the variant shown here, GUUCAGUUGGCGUAAUGGUAACGCGUCCCCCUCCCAAGGAGAAGACUGCGGGUUCGAGUCCCGUAUGGAACG , give the reported yeast fitness. ≤ 0.5

So what's the measured yeast fitness for this one? GUUCGGCUGGGGUAAUGGUAACCCGCUUCCCUCCUAAGGAGUAGACUGCGGGUUCGAGUCCCGUACGGAACG ≤ 0.5

Any idea what its yeast fitness is? The variant is GUUCCGUUGGCGUAAUGGUAGCGCGUCUCCCUCCUAAGGAGAAGACUGCGGGUUUGAGUCCCGUAUGGAACG ≤ 0.5

Param item = GUUCCGUUGGCGUAAUGGUAACGCGUCUCCCUCCUAAGGAGAAGACUGCGGGUUUGAGUCCCGCACGGAACG ; retrieve measured yeast fitness. 0.873

// lookup yeast fitness for GUUCCGUUGGCGUAAUGGUAACGCGUCUCCCUCCUAAGGAGCAGACUGCGGGUACGAGUCCCGUACGGAACG 0.567

Reported yeast fitness, variant GCUCCGUUGGCGUAAUGGUAACGCGUGACCCUCCUAAGGAGAUGACUGCGGGUUCGAGUCCCGUACGGAGCG : ____ ≤ 0.5

Give its yeast fitness value. Item: GUUCUGUUGGCGUAGUGGUCACGCGCCUCCCUCCUAAGGACAAGACUGCGGCUUCGUGUCCCGUUCGGAACG ≤ 0.5

Please report the recorded yeast fitness for GUUCCGUCGGCGUAAUGGUAACGCCUCUCCCUCCUAACGAGAAGACUGUGGGUUCGUGUCCCGUAAGGAACG . ≤ 0.5

Bench note: what yeast fitness did GUACCGUUGGCGUAUUGGUACCGCGUCUCCCUCCUAAGCAGAGGACUGCGGGUCCGAGUCCCGUACGGAACG show? ≤ 0.5

So what's the measured yeast fitness for this one? GUUCCGUUGGCGUACUGGUAAAGCGUCUCCAUCCUAACGAGAAGACUGCGGGUUCGACUCCCGUACGGAACG 0.542

So what's the measured yeast fitness for this one? GCUCCGUUGGCGUAAUGGUAACGCGUCUCUCUCCUAAGGAGAAGACUGCGGGUACGAGUCCCGUACGGAACG ≤ 0.5

Give the measured yeast fitness of GUUCCGUUGGCGUAAUGGUAACGUCUCUCCCUCCUAAGGAGAAGACUGCGGGUUCAAGUCCCGUACGGAACG . 0.882

// yeast fitness lookup, key: GUUCCGGUGGCGUAAUGGUAACGUGUCUCCCUUCUAAGGAGAAGACUGCGGGUUCGAGUCCCGUACGGAACG 0.568

I am curious: what yeast fitness value has been reported for GUUCCGUUGGAGUAAUGGUAACGCGUCUCCCUCCUAAGGAGAAGAUUGCGGGUUCGAGUCCCGUACGGAGCG ? 0.56

Quick check: yeast fitness of GAUCCGUUGGCGUAAUCGUAACGCGUCUCCCUCCUAAGGAGAAGACUGCGGGUUCGAGUCCCGUACGGAACG ? 0.603

Tell me the measured yeast fitness of GUUCCGUUGGCGUAAUGGUAACGCGUCUCCCUCCUAAGGAGCAGACUGCGGGUUCGUGUCCCGUAUGGAACG , please. ≤ 0.5

Value lookup for yeast fitness; key = GGUCCGUUGGCGUAAUGGUUACGCGUCUACCUCCUAAGAAGAAGCCUGCGGGUUCGAGUCCCGUACGGAACG 0.586

yeast fitness lookup needed for GAUCCGUAGGCAUAAUGGUAACGCGUCUCUCUCCUAAGGAGAAGACUGCGGGUUCGAGUCCCGUACGGAACG , thanks. ≤ 0.5

What value of yeast fitness has been recorded for this entry: GUUCAGUUGGCGUAAUGGUUACGCGUCUCCCUCCUAAGGAGAAGACUGCGGGUUCGAGUCCCGUACGGAACG 0.781

Quick one: yeast fitness for GUUCCGUUGGCGUAAUGGUAACGCGUCUCCCUCCUGAGGAGAAGCCUGCGGGUUCGAGUCUCGUACGGAACG ? 0.76

// data source = the RNAGym collection of RNA variant scans (doi:10.1126/science.aae0568)
